target: TLR8 (Homo sapiens (Human), UniProt Q9NR97); assay: TLR8 human peripheral blood mononuclear cell (PBMC) cell-based assay (Compound A as agonist; TNFα and IL12p40 readout); conditions: human PBMCs, TLR8 agonist Compound A at 800 nM, 6 hours, antagonist potency; read-out: TLR-8 EC50
Sequence (Q9NR97 27-1041): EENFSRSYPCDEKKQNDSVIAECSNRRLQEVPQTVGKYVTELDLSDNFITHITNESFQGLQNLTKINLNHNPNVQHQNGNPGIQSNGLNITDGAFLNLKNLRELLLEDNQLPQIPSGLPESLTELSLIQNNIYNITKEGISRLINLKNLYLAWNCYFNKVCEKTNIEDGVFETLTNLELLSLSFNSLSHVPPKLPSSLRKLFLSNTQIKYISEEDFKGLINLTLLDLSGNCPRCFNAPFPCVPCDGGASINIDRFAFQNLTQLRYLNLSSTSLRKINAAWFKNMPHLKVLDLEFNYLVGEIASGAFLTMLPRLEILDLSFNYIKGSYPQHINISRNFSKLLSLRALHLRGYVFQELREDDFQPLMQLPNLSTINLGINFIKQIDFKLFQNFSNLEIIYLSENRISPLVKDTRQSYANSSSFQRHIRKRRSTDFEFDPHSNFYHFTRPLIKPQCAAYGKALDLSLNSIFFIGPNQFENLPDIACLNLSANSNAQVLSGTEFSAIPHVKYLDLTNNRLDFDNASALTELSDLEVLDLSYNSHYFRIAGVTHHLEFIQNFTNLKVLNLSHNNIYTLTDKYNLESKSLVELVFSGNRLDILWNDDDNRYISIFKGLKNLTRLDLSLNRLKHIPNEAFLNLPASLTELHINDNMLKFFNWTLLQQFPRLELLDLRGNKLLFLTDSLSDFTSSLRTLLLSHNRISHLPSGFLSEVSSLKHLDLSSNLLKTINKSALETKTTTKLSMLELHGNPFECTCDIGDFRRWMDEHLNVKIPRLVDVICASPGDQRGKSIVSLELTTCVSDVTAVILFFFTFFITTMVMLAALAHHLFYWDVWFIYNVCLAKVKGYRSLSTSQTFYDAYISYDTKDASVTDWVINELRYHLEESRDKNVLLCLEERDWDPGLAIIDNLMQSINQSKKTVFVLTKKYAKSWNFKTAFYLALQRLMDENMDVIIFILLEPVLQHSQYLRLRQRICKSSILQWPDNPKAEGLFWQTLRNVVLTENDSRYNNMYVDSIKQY
pEC50: −log10 of the molar value.

compound | pEC50
Cc1nnc(CN2C[C@@H]3C[C@H]2C[C@H]3c2sc3[nH]c(-c4cn5ncnc5c(C)c4C)c(C(C)C)c3c2C)o1 [Example 119] | 8.34
Cc1c(-c2[nH]c3sc([C@@H]4C[C@@H]5C[C@H]4CN5CC(=O)N(C)C)c(C)c3c2C(C)C)cn2ncnc2c1C [Example 163] | 9.42
Cc1c(-c2[nH]c3sc(C4CC5(CNCCO5)C4)c(C)c3c2C(C)C)cn2ncnc2c1C (stereo not shown) [Example 76] | 9.62
Cc1c(-c2[nH]c3sc(C4CCC(N5CC[C@@H](F)C5)CC4)c(C)c3c2C(C)C)cn2ncnc2c1C (stereo partly shown) [Example 303] | 8.56
Cc1c(-c2[nH]c3sc(C4C[C@H]5C[C@@H]4N(CC(N)=O)C5)c(C)c3c2C(C)C)cn2ncnc2c1C (stereo partly shown) [Example 114] | 8.57
Cc1c([C@@H]2C[C@@H]3CN(CC(N)=O)C[C@@H]3C2)sc2[nH]c(-c3cc(C)c4ncnn4c3)c(C(C)C)c12 [Example 71] | 8.11
Cc1c(C2CCN(S(=O)(=O)N3CCN(C)CC3)CC2)sc2[nH]c(-c3cc(C)c4ncnn4c3)c(C(C)C)c12 [Example 157] | 7.53

###

Documented EC50 across a set of compounds
target: TLR7 (Homo sapiens (Human), UniProt Q9NYK1); assay: TLR7 human peripheral blood mononuclear cell (PBMC) cell-based assay (GS-986 as agonist; IL-6 and IFNα readout); conditions: human PBMCs, TLR7 agonist GS-986 at 400 nM, 6 hours, antagonist potency; read-out: TLR-7 EC50
Sequence (Q9NYK1 27-1049): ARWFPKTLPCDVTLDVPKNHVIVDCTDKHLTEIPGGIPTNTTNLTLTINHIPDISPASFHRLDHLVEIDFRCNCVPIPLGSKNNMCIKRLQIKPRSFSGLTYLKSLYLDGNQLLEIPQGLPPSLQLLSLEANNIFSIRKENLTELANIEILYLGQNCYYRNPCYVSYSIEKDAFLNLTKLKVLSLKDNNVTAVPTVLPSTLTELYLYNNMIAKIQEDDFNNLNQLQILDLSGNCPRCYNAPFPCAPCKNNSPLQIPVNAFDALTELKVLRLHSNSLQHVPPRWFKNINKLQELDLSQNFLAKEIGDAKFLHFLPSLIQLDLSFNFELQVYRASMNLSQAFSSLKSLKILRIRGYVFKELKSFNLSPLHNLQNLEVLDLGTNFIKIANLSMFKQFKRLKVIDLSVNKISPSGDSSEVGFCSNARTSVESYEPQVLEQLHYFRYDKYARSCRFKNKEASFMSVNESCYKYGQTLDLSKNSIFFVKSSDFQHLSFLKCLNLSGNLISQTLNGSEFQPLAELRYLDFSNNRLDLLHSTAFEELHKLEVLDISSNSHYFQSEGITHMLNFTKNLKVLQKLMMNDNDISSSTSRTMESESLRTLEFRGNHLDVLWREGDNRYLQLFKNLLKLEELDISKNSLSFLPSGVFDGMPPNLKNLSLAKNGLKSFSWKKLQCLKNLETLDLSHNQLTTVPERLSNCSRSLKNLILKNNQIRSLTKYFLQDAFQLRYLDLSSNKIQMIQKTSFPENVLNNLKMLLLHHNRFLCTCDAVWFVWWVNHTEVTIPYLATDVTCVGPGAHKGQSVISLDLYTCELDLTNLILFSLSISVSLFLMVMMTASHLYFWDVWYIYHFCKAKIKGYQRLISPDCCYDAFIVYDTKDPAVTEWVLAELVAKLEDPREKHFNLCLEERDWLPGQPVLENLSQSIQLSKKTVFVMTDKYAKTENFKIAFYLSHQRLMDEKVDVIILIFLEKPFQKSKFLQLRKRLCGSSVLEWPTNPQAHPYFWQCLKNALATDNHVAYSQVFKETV

compound | testTarget | readoutUnit | EC50
Cc1c(C2CCN(CC(N)=O)CC2)sc2[nH]c(-c3cc(C)c4nccn4c3)c(C(C)C)c12 | TLR7 (Homo sapiens (Human), UniProt Q9NYK1) | nM | 0.29
Cc1c(-c2[nH]c3sc(C4CC(c5nnc([C@H]6COCCN6)o5)C4)c(C)c3c2C(C)C)cn2ncnc2c1C (single isomer, unassigned) [Example 240] | TLR7 (Homo sapiens (Human), UniProt Q9NYK1) | nM | 4.86
Cc1c(C2CCN(CC3(C)COC3)CC2)sc2[nH]c(-c3cc(C)c4ncnn4c3)c(C(C)C)c12 | TLR7 (Homo sapiens (Human), UniProt Q9NYK1) | nM | 2.47
Cc1cc2ncnn2cc1-c1[nH]c2sc(C3CCN(CC(N)=O)CC3)c(C)c2c1C(C)C | TLR7 (Homo sapiens (Human), UniProt Q9NYK1) | nM | 10.1
CNC(=O)CN1C[C@@H]2C[C@H]1C[C@H]2c1sc2[nH]c(-c3cn4ncnc4c(C)c3C)c(C(C)C)c2c1C | TLR7 (Homo sapiens (Human), UniProt Q9NYK1) | nM | 0.37
Cc1c(-c2[nH]c3sc([C@@H]4C[C@@H]5C[C@H]4CN5Cc4nnc[nH]4)c(C)c3c2C(C)C)cn2ncnc2c1C | TLR7 (Homo sapiens (Human), UniProt Q9NYK1) | nM | 0.08
Cc1c(-c2[nH]c3sc(C4CCC45CNC5)c(C)c3c2C(C)C)cn2ncnc2c1C (stereo not shown) | TLR7 (Homo sapiens (Human), UniProt Q9NYK1) | nM | 8.77

###

molecular target: TLR8 (Homo sapiens (Human), UniProt Q9NR97); experiment: TLR8 human peripheral blood mononuclear cell (PBMC) cell-based assay (Compound A as agonist; TNFα and IL12p40 readout); conditions: human PBMCs, TLR8 agonist Compound A at 800 nM, 6 hours, antagonist potency; read-out: TLR-8 EC50
Documented EC50 across a set of compounds

compound | testTarget | EC50 / nM
Cc1c(-c2[nH]c3sc(C4CCN(C(=O)[C@H]5C[C@@]6(CN(CCO)CCO6)C5)CC4)c(C)c3c2C(C)C)cn2ncnc2c1C | TLR8 (Homo sapiens (Human), UniProt Q9NR97) | 18.5
Cc1c(C2CCNC2)sc2[nH]c(-c3cc(C)c4ncnn4c3)c(C(C)C)c12 (stereo not drawn) | TLR8 (Homo sapiens (Human), UniProt Q9NR97) | 1.52
Cc1c(-c2[nH]c3sc([C@H]4C[C@@H]5CC[C@H]4CN5Cc4cn(C)nn4)c(C)c3c2C(C)C)cn2ncnc2c1C (single isomer, unassigned) | TLR8 (Homo sapiens (Human), UniProt Q9NR97) | 0.78
Cc1c(-c2[nH]c3sc([C@@H]4C[C@@H]5C[C@H]4CN5CCO)c(C)c3c2C(C)C)cn2ncnc2c1C | TLR8 (Homo sapiens (Human), UniProt Q9NR97) | 0.35
Cc1c(-c2[nH]c3sc([C@@H]4C[C@@H]5C[C@H]4CN5C4(CC#N)CN(S(C)(=O)=O)C4)c(C)c3c2C(C)C)cn2ncnc2c1C | TLR8 (Homo sapiens (Human), UniProt Q9NR97) | 23.2
Cc1c(C2CCN(C(=O)C3COCC(C)(C)N3)CC2)sc2[nH]c(-c3cc(C)c4ncnn4c3)c(C(C)C)c12 (stereo not drawn) | TLR8 (Homo sapiens (Human), UniProt Q9NR97) | 19.8

###

biological target: TLR8 (Homo sapiens (Human), UniProt Q9NR97); assay: TLR8 human peripheral blood mononuclear cell (PBMC) cell-based assay (Compound A as agonist; TNFα and IL12p40 readout); settings: human PBMCs, TLR8 agonist Compound A at 800 nM, 6 hours, antagonist potency; read-out: TLR-8 EC50

compound | EC50 (nM)
Cc1c(C2CC3COCC(C2)N3CC(N)=O)sc2[nH]c(-c3cc(C)c4ncnn4c3)c(C(C)C)c12 (stereo not shown) | 257
Cc1c(-c2[nH]c3sc([C@@H]4C[C@@H]5C[C@H]4CN5C(=O)[C@@H]4C[C@@H](F)CN4)c(C)c3c2C(C)C)cn2ncnc2c1C | 14.2
Cc1c(-c2[nH]c3sc(C4CCN(C(=O)[C@H]5C[C@@H](C(F)(F)F)CCN5)CC4)c(C)c3c2C(C)C)cn2ncnc2c1C | 4.91
Cc1c(-c2[nH]c3sc([C@@H]4C[C@@H]5C[C@H]4CN5C(=O)[C@H]4COCCN4)c(C)c3c2C(C)C)cn2ncnc2c1C | 12.8
CCc1c(C2CCNCC2)sc2[nH]c(-c3cc(C)c4ncnn4c3)c(C(C)C)c12 | 20.1
Cc1c(C2CCN(C(=O)C3CNC3)CC2)sc2[nH]c(-c3cc(C)c4ncnn4c3)c(C(C)C)c12 | 46.1
Cc1c(-c2[nH]c3sc([C@@H]4C[C@@H]5C[C@H]4CN5C4CCS(=O)(=O)C4)c(C)c3c2C(C)C)cn2ncnc2c1C (stereo partly shown) | 2.77

###

biological target: MATE2-K (multidrug and toxin extrusion protein 2) (Homo sapiens (Human), UniProt Q86VL8); assay: MATE2-K IC50 assay (14C-metformin uptake in transfected MDCK-II cells); type: in vitro ADME; settings: transfected MDCK-II cells, 10 μM 14C-metformin probe substrate; read-out: MATE2-K IC50
Sequence (Q86VL8 other isoform, or with tags, fused parts or gaps, species assumed): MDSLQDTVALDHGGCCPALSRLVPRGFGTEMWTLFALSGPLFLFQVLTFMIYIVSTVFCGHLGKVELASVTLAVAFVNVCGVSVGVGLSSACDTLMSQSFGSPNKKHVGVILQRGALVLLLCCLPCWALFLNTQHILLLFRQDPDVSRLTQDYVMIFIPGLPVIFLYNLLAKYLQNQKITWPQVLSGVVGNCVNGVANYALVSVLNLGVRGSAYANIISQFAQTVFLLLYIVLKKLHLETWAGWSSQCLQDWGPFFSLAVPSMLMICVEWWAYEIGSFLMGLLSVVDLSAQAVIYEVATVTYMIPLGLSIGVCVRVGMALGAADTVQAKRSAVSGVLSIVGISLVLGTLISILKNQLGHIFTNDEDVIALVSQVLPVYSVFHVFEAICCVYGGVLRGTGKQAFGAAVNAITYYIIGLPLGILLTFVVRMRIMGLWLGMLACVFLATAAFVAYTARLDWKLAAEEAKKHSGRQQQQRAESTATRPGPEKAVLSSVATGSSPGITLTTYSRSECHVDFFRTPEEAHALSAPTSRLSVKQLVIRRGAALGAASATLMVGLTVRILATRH
measuredQuantity: IC50 (µM)

compound | readoutUnit | reported
Cc1c(-c2[nH]c3sc(C4CCN(C(=O)[C@H]5COCCN5)CC4)c(C)c3c2C(C)C)cn2ncnc2c1C | µM | 7.7
Cc1c(-c2[nH]c3sc([C@@H]4C[C@@H]5C[C@H]4CN5C(C)C(N)=O)c(C)c3c2C(C)C)cn2ncnc2c1C (single isomer, unassigned) | µM | 9.7
Cc1c(-c2[nH]c3ccc(C4CCN(CC(N)=O)CC4)cc3c2C(C)C)cn2ncnc2c1C [Example A-1, reference compound] | µM | 0.3

###

target: TLR7 (Homo sapiens (Human), UniProt Q9NYK1); assay: TLR7 human peripheral blood mononuclear cell (PBMC) cell-based assay (GS-986 as agonist; IL-6 and IFNα readout); conditions: human PBMCs, TLR7 agonist GS-986 at 400 nM, 6 hours, antagonist potency; read-out: TLR-7 EC50
measuredQuantity: EC50 (pM)

compound | sign | reported
Cc1c(-c2[nH]c3sc([C@@H]4C[C@@H]5C[C@H]4CN5C4CC5(CCNC5=O)C4)c(C)c3c2C(C)C)cn2ncnc2c1C (stereo partly drawn) [Example 297] | < | 50
Cc1c(CCC2CCN(CC(N)=O)CC2)sc2[nH]c(-c3cc(C)c4ncnn4c3)c(C(C)C)c12 [Example 203] | = | 4200
Cc1c(-c2[nH]c3sc([C@@H]4C[C@@H]5CC[C@H]4CN5CCS(C)(=O)=O)c(C)c3c2C(C)C)cn2ncnc2c1C (single isomer, unassigned) [Example 233] | = | 160
Cc1c(-c2[nH]c3sc([C@@H]4C[C@@H]5C[C@H]4CN5CCO)c(C)c3c2C(C)C)cn2ncnc2c1C [Example 229] | = | 60
Cc1c(-c2[nH]c3sc([C@@H]4C[C@@H]5C[C@H]4CN5CC(=O)NC4COC4)c(C)c3c2C(C)C)cn2ncnc2c1C [Example 274] | = | 1540
Cc1c([C@@H]2C[C@H]3CC[C@@H]2CN3CC(N)=O)sc2[nH]c(-c3cc(C)c4ncnn4c3)c(C(C)C)c12 (single isomer, unassigned) [Example 191] | < | 50
